system: OVCAR-5 complex spheroids with HUVEC/MSC, viability, % test/control; assay: Anticancer human tumor OVCAR-5 cell line growth inhibition [AhR]; details: curve of first compound; second compound 1 µM;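 also: spheroids exposed to compounds for 7 days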
measured.property: IC50

Some solved cases for reference:
compound	target.desc	IC50
Cn1ncnc1C1c2n[nH]c(=O)c3cc(F)cc(c23)NC1c1ccc(F)cc1 (configuration not stated) + Cc1ccccc1N=Nc1ccc(NC(=O)c2ccnn2C)c(C)c1	OVCAR-5 complex spheroids with HUVEC/MSC, viability, % test/control	> 100 nM
CCc1c2c(nc3ccc(O)cc13)-c1cc3c(c(=O)n1C2)COC(=O)[C@]3(O)CC + Cc1cncc(-c2nc(NCCc3c[nH]c4ccccc34)c3ncn(C(C)C)c3n2)c1	OVCAR-5 complex spheroids with HUVEC/MSC, viability, % test/control	8.08 nM
O=C(C=Cn1cnc(-c2cc(C(F)(F)F)cc(C(F)(F)F)c2)n1)NNc1cnccn1 + Cc1ccccc1N=Nc1ccc(NC(=O)c2ccnn2C)c(C)c1	OVCAR-5 complex spheroids with HUVEC/MSC, viability, % test/control	2830 nM
COc1cccc2c1C(=O)c1c(O)c3c(c(O)c1C2=O)CC(O)(C(=O)CO)CC3OC1CC(N)C(O)C(C)O1 (configuration not stated) + Cc1cncc(-c2nc(NCCc3c[nH]c4ccccc34)c3ncn(C(C)C)c3n2)c1	OVCAR-5 complex spheroids with HUVEC/MSC, viability, % test/control	241 nM
O=C(C=Cc1cccc(S(=O)(=O)Nc2ccccc2)c1)NO + CC(CO)NC(=O)c1cc(-c2ccc(Cl)cc2)nn(-c2cnn(C)c2)c1=O	OVCAR-5 complex spheroids with HUVEC/MSC, viability, % test/control	995 nM

Kindly give each listed record's IC50.
1. CC(C)c1c(-c2ccccc2)nc2c(C#N)c[nH]n2c1=O + Cc1ccccc1N=Nc1ccc(NC(=O)c2ccnn2C)c(C)c1
2. O=C(c1cc(Cc2n[nH]c(=O)c3ccccc23)ccc1F)N1CCN(C(=O)C2CC2)CC1 + Cc1ccccc1N=Nc1ccc(NC(=O)c2ccnn2C)c(C)c1
3. CCc1c2c(nc3ccc(O)cc13)-c1cc3c(c(=O)n1C2)COC(=O)[C@]3(O)CC + Cc1ccccc1N=Nc1ccc(NC(=O)c2ccnn2C)c(C)c1

Reply:
1. > 10000 nM
2. > 10000 nM
3. 9.43 nM

Kindly give each listed record's IC50.
1. Nc1ccn(C2OC(CO)C(O)C2(F)F)c(=O)n1 (configuration not stated) + CC(CO)NC(=O)c1cc(-c2ccc(Cl)cc2)nn(-c2cnn(C)c2)c1=O
2. CC1(C)CCC(CN2CCN(c3ccc(C(=O)NS(=O)(=O)c4ccc(NCC5CCOCC5)c([N+](=O)[O-])c4)c(Oc4cnc5[nH]ccc5c4)c3)CC2)=C(c2ccc(Cl)cc2)C1 + CC(CO)NC(=O)c1cc(-c2ccc(Cl)cc2)nn(-c2cnn(C)c2)c1=O

Reply:
["< 31.6 nM", "> 10000 nM"]

Kindly give each listed record's IC50.
1. CC1(C)CCC(CN2CCN(c3ccc(C(=O)NS(=O)(=O)c4ccc(NCC5CCOCC5)c([N+](=O)[O-])c4)c(Oc4cnc5[nH]ccc5c4)c3)CC2)=C(c2ccc(Cl)cc2)C1 + Cc1cncc(-c2nc(NCCc3c[nH]c4ccccc34)c3ncn(C(C)C)c3n2)c1
2. O=C(c1cc(Cc2n[nH]c(=O)c3ccccc23)ccc1F)N1CCN(C(=O)C2CC2)CC1 + Cc1cncc(-c2nc(NCCc3c[nH]c4ccccc34)c3ncn(C(C)C)c3n2)c1

Reply:
1. > 10000 nM
2. > 10000 nM

----------
System: OVCAR-5 complex spheroids with HUVEC/MSC, viability, % test/control
Experiment: Anticancer human tumor OVCAR-5 cell line growth inhibition [AhR];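 also: spheroids exposed to compounds for 7 days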;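 as to viability, T/C: 100% = DMSO vehicle control wells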
Details: second compound 1 µM; first compound 0.1 µM; stronger effect = lower value
Description: Multicellular complex tumor spheroid response to aryl hydrocarbon receptor antagonists in combination with a variety of drugs and investigational agents in selected tumor cell lines […] Compounds. […] If the clinical Cmax for an agent had not been determined, the highest concentration tested was 10 microM (Table 1). […]
measured.property: viability, T/C (%)
Numbers only, in %.

Some solved cases for reference:
molecule	result
NS(=O)(=O)OCC1CC(n2ccc3c(NC4CCc5ccccc54)ncnc32)CC1O (centres undefined) + Cc1cncc(-c2nc(NCCc3c[nH]c4ccccc34)c3ncn(C(C)C)c3n2)c1	47.4
O=C(c1cc(Cc2n[nH]c(=O)c3ccccc23)ccc1F)N1CCN(C(=O)C2CC2)CC1 + CC(CO)NC(=O)c1cc(-c2ccc(Cl)cc2)nn(-c2cnn(C)c2)c1=O	114
CC1COCCN1c1cc(-c2ccnn2C)c2ccnc(-c3ccn[nH]3)c2n1 (centres undefined) + Cc1cncc(-c2nc(NCCc3c[nH]c4ccccc34)c3ncn(C(C)C)c3n2)c1	78.2

Kindly give each listed record's viability, T/C.
1. CC1(C)CCC(CN2CCN(c3ccc(C(=O)NS(=O)(=O)c4ccc(NCC5CCOCC5)c([N+](=O)[O-])c4)c(Oc4cnc5[nH]ccc5c4)c3)CC2)=C(c2ccc(Cl)cc2)C1 + Cc1ccccc1N=Nc1ccc(NC(=O)c2ccnn2C)c(C)c1
2. CC1(C)CCC(CN2CCN(c3ccc(C(=O)NS(=O)(=O)c4ccc(NCC5CCOCC5)c([N+](=O)[O-])c4)c(Oc4cnc5[nH]ccc5c4)c3)CC2)=C(c2ccc(Cl)cc2)C1 + Cc1cncc(-c2nc(NCCc3c[nH]c4ccccc34)c3ncn(C(C)C)c3n2)c1
3. COc1cccc2c1C(=O)c1c(O)c3c(c(O)c1C2=O)CC(O)(C(=O)CO)CC3OC1CC(N)C(O)C(C)O1 (centres undefined) + Cc1ccccc1N=Nc1ccc(NC(=O)c2ccnn2C)c(C)c1
4. O=C(C=Cc1cccc(S(=O)(=O)Nc2ccccc2)c1)NO + Cc1cncc(-c2nc(NCCc3c[nH]c4ccccc34)c3ncn(C(C)C)c3n2)c1
5. CC[C@@]1(O)C(=O)OCc2c1cc1n(c2=O)Cc2cc3c(CN(C)C)c(O)ccc3nc2-1 + Cc1ccccc1N=Nc1ccc(NC(=O)c2ccnn2C)c(C)c1

Reply:
1: 113; 2: 100; 3: 53.2; 4: 88.3; 5: 42.4

Kindly give each listed record's viability, T/C.
1. Nc1ccccc1NC(=O)c1ccc(CNC(=O)OCc2cccnc2)cc1 + Cc1cncc(-c2nc(NCCc3c[nH]c4ccccc34)c3ncn(C(C)C)c3n2)c1
2. CC1COCCN1c1cc(-c2ccnn2C)c2ccnc(-c3ccn[nH]3)c2n1 (centres undefined) + Cc1ccccc1N=Nc1ccc(NC(=O)c2ccnn2C)c(C)c1
3. COc1cccc2c1C(=O)c1c(O)c3c(c(O)c1C2=O)CC(O)(C(=O)CO)CC3OC1CC(N)C(O)C(C)O1 (centres undefined) + Cc1cncc(-c2nc(NCCc3c[nH]c4ccccc34)c3ncn(C(C)C)c3n2)c1
4. CC[C@@]1(O)C(=O)OCc2c1cc1n(c2=O)Cc2cc3c(CN(C)C)c(O)ccc3nc2-1 + Cc1cncc(-c2nc(NCCc3c[nH]c4ccccc34)c3ncn(C(C)C)c3n2)c1
5. CC(C)c1c(-c2ccccc2)nc2c(C#N)c[nH]n2c1=O + Cc1ccccc1N=Nc1ccc(NC(=O)c2ccnn2C)c(C)c1
6. O=C(C=Cc1cccc(S(=O)(=O)Nc2ccccc2)c1)NO + Cc1ccccc1N=Nc1ccc(NC(=O)c2ccnn2C)c(C)c1

Reply:
1: 77.2; 2: 87.5; 3: 51.6; 4: 55.8; 5: 109; 6: 97.4

----------
system: OVCAR-5 complex spheroids with HUVEC/MSC, viability, % test/control; assay: Anticancer human tumor OVCAR-5 cell line growth inhibition [AhR]; details: second compound 0.316 µM; first compound 0.0316 µM; stronger effect = lower value;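 also: spheroids exposed to compounds for 7 days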;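 as to viability, T/C: 100% = DMSO vehicle control wells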
measured.property: viability, T/C (%)
Numbers only, in %.

Some solved cases for reference:
compound	target.desc	viability, T/C [%]
COc1ccc([C@@H](O)c2cc(-c3ncnc4cc(N5CCOCC5)ccc34)c(F)cc2Cl)nn1 + CC(CO)NC(=O)c1cc(-c2ccc(Cl)cc2)nn(-c2cnn(C)c2)c1=O	OVCAR-5 complex spheroids with HUVEC/MSC, viability, % test/control	105
COc1cc(Nc2ncc3c(n2)-c2ccc(Cl)cc2C(c2c(F)cccc2OC)=NC3)ccc1C(=O)O + CC(CO)NC(=O)c1cc(-c2ccc(Cl)cc2)nn(-c2cnn(C)c2)c1=O	OVCAR-5 complex spheroids with HUVEC/MSC, viability, % test/control	87.3

Now for another entry.
Ask: Query (compound): Cn1ncnc1C1c2n[nH]c(=O)c3cc(F)cc(c23)NC1c1ccc(F)cc1 (stereo not drawn) + CC(CO)NC(=O)c1cc(-c2ccc(Cl)cc2)nn(-c2cnn(C)c2)c1=O ; field requested: viability, T/C
Reply: 105

Data origin, for the record: PubChem BioAssay AID1919015
